Entries and their measured IC50, inhibition of huKv1.3 currents (QPatch, CHO cells) follow.
# subject.of.test: human Kv 1.3 (human) (UniProt P22001)
# Sequence (P22001 whole entry): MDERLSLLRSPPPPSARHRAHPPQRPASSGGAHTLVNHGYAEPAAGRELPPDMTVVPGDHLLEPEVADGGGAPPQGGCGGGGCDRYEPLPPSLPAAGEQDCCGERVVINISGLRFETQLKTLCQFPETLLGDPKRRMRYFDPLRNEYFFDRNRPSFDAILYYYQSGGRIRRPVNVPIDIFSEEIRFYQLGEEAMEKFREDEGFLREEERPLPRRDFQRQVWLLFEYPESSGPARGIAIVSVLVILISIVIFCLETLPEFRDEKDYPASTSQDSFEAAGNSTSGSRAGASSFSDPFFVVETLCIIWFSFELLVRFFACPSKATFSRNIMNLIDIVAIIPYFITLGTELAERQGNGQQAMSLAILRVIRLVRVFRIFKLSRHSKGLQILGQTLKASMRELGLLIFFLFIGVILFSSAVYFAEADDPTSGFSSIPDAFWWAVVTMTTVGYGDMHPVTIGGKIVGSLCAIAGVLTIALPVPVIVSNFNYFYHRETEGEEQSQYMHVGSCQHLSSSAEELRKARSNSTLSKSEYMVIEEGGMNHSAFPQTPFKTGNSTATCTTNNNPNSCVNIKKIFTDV
# experiment.summary: cell-based or functional assay
readout: IC50, inhibition of huKv1.3 currents (QPatch, CHO cells)

>  <binder>
KB_A07 IgG1 (EETI-II fusion, isotype control) (antibody, V domains shown) VH: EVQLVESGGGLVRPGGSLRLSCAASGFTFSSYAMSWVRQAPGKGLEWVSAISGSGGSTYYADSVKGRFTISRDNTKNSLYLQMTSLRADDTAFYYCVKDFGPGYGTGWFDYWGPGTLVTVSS VL: YLNWYQQKPGKAPKLLIYAAGVCPRILMRCKQDSDCLAGCVCGPNGFCGSRSGVPSRFSGSGSGTDFTLTISSLQPEDFATYYCQQGASPPYTFGQGTKVEIKR

>  <result>
> 10 µM

$$$$
>  <binder>
KB_A07 MoKa-1 fusion (antibody, V domains shown) VH: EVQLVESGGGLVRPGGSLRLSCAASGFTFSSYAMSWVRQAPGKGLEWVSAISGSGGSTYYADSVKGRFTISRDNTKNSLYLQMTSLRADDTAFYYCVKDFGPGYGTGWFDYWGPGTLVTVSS VL: DIQMTQSPSSLSASVGDRVTITCRASQSISSYLNWYQQKPGKAPKLLIYAAGVINVKCSLPQQCIKPCKDAGMRFGKCMNKKCRCYSSRSGVPSRFSGSGSGTDFTLTISSLQPEDFATYYCQQGASPPYTFGQGTKVEIKRT

>  <result>
> 10 µM

$$$$
>  <binder>
KB_A12_Shk (antibody, V domains shown) VH: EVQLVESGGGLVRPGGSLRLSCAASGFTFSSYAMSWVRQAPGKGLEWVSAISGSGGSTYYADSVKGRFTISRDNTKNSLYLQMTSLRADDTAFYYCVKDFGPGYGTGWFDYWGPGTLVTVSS VL: NWYQQLPGKAPKLLIYAAGRRSCIDTIPKSRCTAFQCKHSMKYRLSFCRKTCGTCANSGVSDRFSAAKSGTSASLAINGLRSEDEADYYCAAWDDSLNGYVFGTGTKLTVLG

>  <result>
0.02 µM

$$$$
>  <binder>
KB_A12 Kaliotoxin (KTX) fusion (antibody) VH: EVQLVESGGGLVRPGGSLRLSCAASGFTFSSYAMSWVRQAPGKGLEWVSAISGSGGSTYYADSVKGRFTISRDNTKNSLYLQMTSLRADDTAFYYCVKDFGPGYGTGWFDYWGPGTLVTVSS VL: QSVLTQPPSVSEAPRQRVTITCSGSSSNIGNNAVNWYQQLPGKAPKLLIYAAGRGVEINVKCSGSPQCLKPCKDAGMRFGKCMNRKCHCTPKANSGVSDRFSAAKSGTSASLAINGLRSEDEADYYCAAWDDSLNGYVFGTGTKLTVLGQP

>  <result>
> 10 µM

$$$$
>  <binder>
KB_A12 IgG1 (EETI-II fusion, isotype control) (antibody, V domains shown) VH: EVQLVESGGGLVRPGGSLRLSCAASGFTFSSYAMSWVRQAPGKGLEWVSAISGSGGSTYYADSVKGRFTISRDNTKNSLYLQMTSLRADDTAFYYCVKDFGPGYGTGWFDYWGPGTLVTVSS VL: AVNWYQQLPGKAPKLLIYAAGRCPRILMRCKQDSDCLAGCVCGPNGFCGANSGVSDRFSAAKSGTSASLAINGLRSEDEADYYCAAWDDSLNGYVFGTGTKLTVLG

>  <result>
> 10 µM

$$$$
>  <binder>
KB_A07_Shk (antibody, V domains shown) VH: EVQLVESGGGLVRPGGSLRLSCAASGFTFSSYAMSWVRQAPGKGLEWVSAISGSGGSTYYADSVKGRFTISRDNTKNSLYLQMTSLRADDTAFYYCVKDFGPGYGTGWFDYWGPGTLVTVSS VL: NWYQQKPGKAPKLLIYAAGVRSCIDTIPKSRCTAFQCKHSMKYRLSFCRKTCGTCSRSGVPSRFSGSGSGTDFTLTISSLQPEDFATYYCQQGASPPYTFGQGTKVEIKR

>  <result>
0.04 µM

$$$$
